A collection of molecules and their measured Ki
- target or test system: Neuropeptide Y receptor type 4 (Homo sapiens)
Non-standard residues stand in square brackets, D forms with d. Residues, ends and D or L forms follow the SMILES beside them. Nva = CCC[C@H](N)C(=O)O
# number only, unit nM dropped from output

molecule	Ki [nM]
CCC[C@H](NC(=O)[C@H](CCCN=C(N)N)NC(=O)[C@H](Cc1c[nH]c2ccccc12)NC(=O)[C@H](Cc1ccc(O)cc1)NC(=O)[C@H](CCCN=C(N)N)NC(=O)[C@H](CCC)NC(=O)[C@H](CCCN=C(N)N)NC(=O)[C@@H](N)Cc1c[nH]c2ccccc12)C(=O)N[C@@H](CCCN=C(N)N)C(=O)N[C@@H](Cc1ccc(O)cc1)C(N)=O (H-WR[Nva]RYWR[Nva]RY-NH2)	5.3

Pending molecule:
Query: May I ask what Ki has been recorded for CCC[C@H](NC(=O)[C@H](CCCN=C(N)N)NC(=O)[C@H](Cc1c[nH]c2ccccc12)NC(=O)[C@H](Cc1ccc(O)cc1)NC(=O)[C@H](CCCN=C(N)N)NC(=O)[C@H](CCC)NC(=O)[C@H](CCCN=C(N)N)NC(=O)[C@H](Cc1c[nH]c2ccccc12)NC(=O)[C@H](Cc1ccc(O)cc1)NC(=O)[C@H](CCCN=C(N)N)NC(=O)[C@H](CCC)NC(=O)[C@H](CCCN=C(N)N)NC(=O)[C@@H](N)Cc1c[nH]c2ccccc12)C(=O)N[C@@H](CCCN=C(N)N)C(=O)N[C@@H](Cc1ccc(O)cc1)C(N)=O (H-WR[Nva]RYWR[Nva]RYWR[Nva]RY-NH2) ?
Response: 3.9

----------
- target or test system: Neuropeptide Y receptor type 4 (Homo sapiens, UniProt P50391)
- Sequence (P50391 whole entry): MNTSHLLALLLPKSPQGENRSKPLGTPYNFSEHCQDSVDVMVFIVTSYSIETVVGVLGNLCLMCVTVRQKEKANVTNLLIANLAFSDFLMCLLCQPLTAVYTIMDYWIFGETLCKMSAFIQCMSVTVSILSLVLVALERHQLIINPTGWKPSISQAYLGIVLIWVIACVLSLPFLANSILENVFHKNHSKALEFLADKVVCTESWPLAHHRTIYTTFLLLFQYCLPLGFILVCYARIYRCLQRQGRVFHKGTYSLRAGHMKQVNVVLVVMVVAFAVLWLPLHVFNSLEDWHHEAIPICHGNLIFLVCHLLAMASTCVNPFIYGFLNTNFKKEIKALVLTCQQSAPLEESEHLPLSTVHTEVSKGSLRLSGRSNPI
- protocol notes: Agonist activity at human NPY4 receptor in CHO cells by inhibition of forskolin-stimulated cAMP synthesis
reported metric: pEC50
Scale explanation: pEC50 corresponds to minus log10 of a concentration expressed in moles per litre.

molecule	test value
CCC[C@H](NC(=O)[C@H](CCCN=C(N)N)NC(=O)[C@H](Cc1c[nH]c2ccccc12)NC(=O)[C@@H](N)CCCC[C@H](N)C(=O)N[C@@H](Cc1c[nH]c2ccccc12)C(=O)N[C@@H](CCCN=C(N)N)C(=O)N[C@@H](CCC)C(=O)N[C@@H](CCCN=C(N)N)C(=O)N[C@@H](Cc1ccc(O)cc1)C(N)=O)C(=O)N[C@@H](CCCN=C(N)N)C(=O)N[C@@H](Cc1ccc(O)cc1)C(N)=O (stereo in doubt; 4B)	6.43

Query: May I ask what pEC50 has been recorded for CCC[C@H](NC(=O)[C@H](CCCN=C(N)N)NC(=O)[C@H](Cc1c[nH]c2ccccc12)NC(=O)[C@@H](N)CC[C@H](N)C(=O)N[C@@H](Cc1c[nH]c2ccccc12)C(=O)N[C@@H](CCCN=C(N)N)C(=O)N[C@@H](CCC)C(=O)N[C@@H](CCCN=C(N)N)C(=O)N[C@@H](Cc1ccc(O)cc1)C(N)=O)C(=O)N[C@@H](CCCN=C(N)N)C(=O)N[C@@H](Cc1ccc(O)cc1)C(N)=O ?
Response: 6.34

Query: Also CCC[C@H](NC(=O)[C@H](CCCN=C(N)N)NC(=O)[C@H](Cc1c[nH]c2ccccc12)NC(=O)[C@@H](N)CCC[C@H](N)C(=O)N[C@@H](Cc1c[nH]c2ccccc12)C(=O)N[C@@H](CCCN=C(N)N)C(=O)N[C@@H](CCC)C(=O)N[C@@H](CCCN=C(N)N)C(=O)N[C@@H](Cc1ccc(O)cc1)C(N)=O)C(=O)N[C@@H](CCCN=C(N)N)C(=O)N[C@@H](Cc1ccc(O)cc1)C(N)=O (stereo in doubt; 2B) , if possible.
Response: 6.66
